system: 786-0; test: NCI tumour cell line growth inhibition, 48 h
Calls of active or inactive are those of the source. No stated cut-off is given here; in the data, active = GI50 up to about 1.1 µM and inactive = higher. Where a SMILES comes first, the peptide text is derived from it.
Examples of molecules with documented GI50 follow.

{"molecule": "CCC(C)C1NC(=O)C2CCCN2C(=O)CNC(=O)C(C)NC(=O)C(Cc2ccccc2)NC(=O)C(C(C)C)NC1=O (stereo not given) (cyclo(GPIVFA); configuration not given here)", "result-value": "> 100 µM (inactive)"}
{"molecule": "COc1cccc(CSCC(=O)O)c1", "result-value": "> 100 µM (inactive)"}
{"molecule": "COC(=O)C1=C(\\c2ccccc2)c2ccccc2C(=O)N(C2CCCCC2)/C=C\\1", "result-value": "34.6 µM (inactive)"}
{"molecule": "COc1cc2oc(-c3ccccc3)cc(=O)c2c(O)c1C", "result-value": "> 100 µM (inactive)"}

Which GI50 value belongs to OCCC/N=C1N=C(Cl)/C(=C\c2ccccc2)N\1 ?
> 100 µM (inactive)

What does the record list as GI50 for CCc1cccc(C)c1NC(C)=O ?
> 100 µM (inactive)

Can you look up the measured GI50 of O=c1[nH]nc(Cc2ccc([N+](=O)[O-])cc2)[nH]1 for me?
> 100 µM (inactive)

Give its GI50 value. Item: COc1cc(O)c2c(c1)C(O)C(O)CC1OC1C(=O)/C=C/CC(C)OC2=O (stereo not given)
3.52 µM (inactive)

Given the molecule O=c1[nH]nc(Cc2ccc(Cl)cc2)n1/N=C/c1ccc([N+](=O)[O-])o1 , what is its reported GI50?
2.23 µM (inactive)

Need GI50 of C/C(=N\NS(=O)(=O)c1ccc(C)cc1)c1cc2ccccc2n1C , thanks.
68.7 µM (inactive)
